Where do these numbers come from? They come from patent US20240246960A1.

Parameter: EC50. Scope: all listed entries.
Molecular target: pDNA-PK ser2056 induction in HCT116 spheroids (Homo sapiens, UniProt P78527)
Construct: endogenous in cells; host or cells: HCT116 multicellular tumour spheroids
Assay: Multicellular tumour spheroid + radiation, pDNA-PK inhibition, HCT116
Assay type: cell-based
Conditions: Example 7; spheroid, cell line HCT115 [sic]; 20 Gy; 20% O2; read-out: EC50 (pDNA-PK inhibition, immunohistochemical endpoint)

For orientation, consider the following solved cases.
# smiles string, system, property measured, result
rows = [
    ("Cc1ccnc(C(=O)N[C@H]2CC[C@@H](Oc3nc(N4CCOCC4)cc4ncccc34)CC2)n1", "pDNA-PK ser2056 induction in HCT116 spheroids (Homo sapiens, UniProt P78527)", "EC50", "1000 to 10000 nM"),
    ("O=C(N[C@H]1CC[C@@H](Oc2nc(N3CCOCC3)cc3ncccc23)CC1)c1nccs1", "pDNA-PK ser2056 induction in HCT116 spheroids (Homo sapiens, UniProt P78527)", "EC50", "1000 to 10000 nM"),
]

Could you now look at the following compound, please?
Input line: Indicate its recorded EC50; the compound in question is Cn1cnc2cnc(N[C@H]3CC[C@@H](Oc4nc(N5CCOCC5)cc5ncccc45)CC3)nc21
Output line: 10 to 500 nM

----------
Biological target: DNA-PK (Homo sapiens)
Construct: purchased Invitrogen PR9107A
Assay: DNA-PK Assay for Biochemical Enzymatic Inhibition (ADP Glo Kinase assay)
Settings: Table 1
pIC50: −log10 of the molar value.
property measured: pIC50

For orientation, consider the following solved cases.
# molecule, pIC50
data = [
    ("Cc1nc(C(F)(F)F)cn1[C@H]1CC[C@@H](Oc2nc(N3CCOCC3)cc3ncccc23)CC1 [Compound 17i]", "9.00 to 9.30"),
    ("O=C(N[C@H]1CC[C@@H](Oc2nc(N3CCOCC3)cc3ncccc23)CC1)c1ncccn1 [Compound 123]", "> 9.30"),
    ("Fc1cnc(N[C@H]2CC[C@@H](Oc3nc(N4CCOCC4)cc4ncccc34)CC2)nc1 [Compound 40]", "> 9.30"),
    ("COc1cnc(N[C@H]2CC[C@@H](Oc3nc(N4CCOCC4)cc4ncc(Br)cc34)CC2)nc1 [Compound 18c]", "6.82 to 8.00"),
]

Input line: Indicate its recorded pIC50; the molecule in question is Fc1cn([C@H]2CC[C@@H](Oc3nc(N4CCOCC4)cc4ncccc34)CC2)cn1 [Compound 17a]
Output line: 9.00 to 9.30

Input line: Indicate its recorded pIC50; the molecule in question is c1cnc(N[C@H]2CC[C@@H](Oc3nc(N4CCOCC4)cc4ncccc34)CC2)nc1 [Compound 20a]
Output line: 9.00 to 9.30

Input line: Indicate its recorded pIC50; the molecule in question is CC(C)c1cnc(N[C@H]2CC[C@@H](Oc3nc(N4CCOCC4)cc4ncccc34)CC2)nc1 [Compound 33]
Output line: 8.00 to 9.00

Input line: Indicate its recorded pIC50; the molecule in question is O=C(N[C@H]1CC[C@@H](Oc2nc(N3CCOCC3)cc3ncccc23)CC1)c1ccnnc1 [Compound 121]
Output line: 9.00 to 9.30

Input line: Indicate its recorded pIC50; the molecule in question is O=C(N[C@H]1CC[C@@H](Oc2nc(N3CCOCC3)cc3ncccc23)CC1)c1cncnc1 [Compound 122]
Output line: 8.00 to 9.00

Input line: Indicate its recorded pIC50; the molecule in question is c1cnc2cc(N3CCOCC3)nc(O[C@H]3CC[C@@H](n4ncnn4)CC3)c2c1 [Compound 17m]
Output line: 8.00 to 9.00

Input line: Indicate its recorded pIC50; the molecule in question is c1cnc2cc(N3CCOCC3)nc(O[C@H]3CC[C@@H](Nc4ccncc4)CC3)c2c1 [Compound 27]
Output line: 9.00 to 9.30

Input line: Indicate its recorded pIC50; the molecule in question is c1cnc2cc(N3CCOCC3)nc(O[C@H]3CC[C@@H](Nc4ncnc5occc45)CC3)c2c1 [Compound 82]
Output line: > 9.30

Input line: Indicate its recorded pIC50; the molecule in question is O=C(N[C@H]1CC[C@@H](Oc2nc(N3CCOCC3)cc3ncccc23)CC1)c1cnccn1 [Compound 119]
Output line: 9.00 to 9.30

Input line: Indicate its recorded pIC50; the molecule in question is Clc1nc(N[C@H]2CC[C@@H](Oc3nc(N4CCOCC4)cc4ncccc34)CC2)c2occc2n1 [Compound 80b]
Output line: > 9.30

Input line: Indicate its recorded pIC50; the molecule in question is O=C(N[C@H]1CC[C@@H](Oc2nc(N3CCOCC3)cc3ncccc23)CC1)c1ncc(Cl)cn1 [Compound 124]
Output line: 9.00 to 9.30

Input line: Indicate its recorded pIC50; the molecule in question is O=C(N[C@H]1CC[C@@H](Oc2nc(N3CCOCC3)cc3ncccc23)CC1)C1CC1 [Compound 108]
Output line: 8.00 to 9.00

Input line: Indicate its recorded pIC50; the molecule in question is c1cnc2cc(N3CCOCC3)nc(O[C@H]3CC[C@@H](Nc4ncc5[nH]ccc5n4)CC3)c2c1 [Compound 85]
Output line: > 9.30

Input line: Indicate its recorded pIC50; the molecule in question is C[C@]1(n2ccnc2)CC[C@@H](Oc2nc(N3CCOCC3)cc3ncccc23)CC1 [Compound 11]
Output line: 6.82 to 8.00

Input line: Indicate its recorded pIC50; the molecule in question is O=C(N[C@H]1CC[C@@H](Oc2nc(N3CCOCC3)cc3ncccc23)CC1)c1ccncc1 [Compound 113]
Output line: > 9.30

Input line: Indicate its recorded pIC50; the molecule in question is COc1nccnc1N[C@H]1CC[C@@H](Oc2nc(N3CCOCC3)cc3ncccc23)CC1 [Compound 39]
Output line: > 9.30

----------
Parameter: pIC50. Scope: all listed entries.
Target: DNA-PK (Homo sapiens)
Construct: purchased Invitrogen PR9107A
Assay: DNA-PK Assay for Biochemical Enzymatic Inhibition (ADP Glo Kinase assay)
Conditions: Table 1
pIC50: −log10 of the molar value.

# molecule, result
measured = [
    ("Brc1cnc2cc(N3CCOCC3)nc(O[C@H]3CC[C@@H](Nc4ncccn4)CC3)c2c1 [Compound 18a]", "8.00 to 9.00"),
    ("Ic1cnc(N[C@H]2CC[C@@H](Oc3nc(N4CCOCC4)cc4ncccc34)CC2)nc1", "9.00 to 9.30"),
    ("FC(F)c1ccc2c(O[C@H]3CC[C@@H](Nc4ncccn4)CC3)nc(N3CCOCC3)cc2n1", "9.00 to 9.30"),
]

Input line: Indicate its recorded pIC50; the molecule in question is FC(F)(F)c1cnc(N[C@H]2CC[C@@H](Oc3nc(N4CCOCC4)cc4ncccc34)CC2)nc1
Output line: 9.00 to 9.30

Input line: Indicate its recorded pIC50; the molecule in question is c1ccc(N[C@H]2CC[C@@H](Oc3nc(N4CCOCC4)cc4ncccc34)CC2)nc1
Output line: 9.00 to 9.30

Input line: Indicate its recorded pIC50; the molecule in question is CN(c1cnc2cc(N3CCOCC3)nc(O[C@H]3CC[C@@H](N(C)c4ncccn4)CC3)c2c1)S(C)(=O)=O
Output line: 6.82 to 8.00

Input line: Indicate its recorded pIC50; the molecule in question is NC(=O)c1cnc(N[C@H]2CC[C@@H](Oc3nc(N4CCOCC4)cc4ncccc34)CC2)nc1
Output line: > 9.30

----------
Molecular target: DNA-PK (Homo sapiens)
Construct: purchased Invitrogen PR9107A
Assay: DNA-PK Assay for Biochemical Enzymatic Inhibition (ADP Glo Kinase assay)
Settings: Table 1
property measured: IC50

For orientation, consider the following solved cases.
# molecule, IC50
rows = [
    ("O=C(N[C@H]1CC[C@@H](Oc2nc(N3CCOCC3)cc3ncccc23)CC1)c1cccnn1 [Compound 120]", "0.5 to 1 nM"),
    ("CS(=O)(=O)Nc1cnc2cc(N3CCOCC3)nc(O[C@H]3CC[C@@H](Nc4ncccn4)CC3)c2c1 [Compound 185]", "< 0.5 nM"),
    ("Cc1cc2ncnn2cc1N[C@H]1CC[C@@H](Oc2nc(N3CCOCC3)cc3ncccc23)CC1 [Compound 91]", "1 to 10 nM"),
    ("O=S(=O)(N[C@H]1CC[C@@H](Oc2nc(N3CCOCC3)cc3ncccc23)CC1)c1ccccc1 [Compound 147]", "10 to 150 nM"),
    ("CC(=O)Nc1cnc2cc(N3CCOCC3)nc(O[C@H]3CC[C@@H](n4ccnc4)CC3)c2c1 [Compound 162]", "10 to 150 nM"),
    ("O=C(N[C@H]1CC[C@@H](Oc2nc(N3CCOCC3)cc3ncccc23)CC1)c1ccc(C(F)(F)F)o1 [Compound 133]", "0.5 to 1 nM"),
    ("Cc1ccnc(N[C@H]2CC[C@@H](Oc3nc(N4CCOCC4)cc4ncccc34)CC2)n1 [Compound 48]", "< 0.5 nM"),
    ("CS(=O)(=O)Nc1cnc2cc(N3CCOCC3)nc(O[C@H]3CC[C@@H](NC(=O)c4ncccn4)CC3)c2c1 [Compound 177]", "0.5 to 1 nM"),
    ("COc1cnc(N[C@H]2CC[C@@H](Oc3nc(N4CCOCC4)cc4ncc(N)cc34)CC2)nc1 [Compound 202]", "< 0.5 nM"),
    ("CCOCCOc1cnc(N[C@H]2CC[C@@H](Oc3nc(N4CCOCC4)cc4ncc(Br)cc34)CC2)nc1 [Compound 18b]", "1 to 10 nM"),
]

Input line: Indicate its recorded IC50; the molecule in question is N#Cc1cnc2cc(N3CCOCC3)nc(O[C@H]3CC[C@@H](Nc4ncccn4)CC3)c2c1 [Compound 200a]
Output line: 0.5 to 1 nM

Input line: Indicate its recorded IC50; the molecule in question is FC(F)(F)c1cnn([C@H]2CC[C@@H](Oc3nc(N4CCOCC4)cc4ncccc34)CC2)c1 [Compound 17b]
Output line: 10 to 150 nM
